These data points were gathered from patent US10988451B2.

Experimental system: MCL-1/Bim (Homo sapiens (Human))
Sequence (Q07820 171-327): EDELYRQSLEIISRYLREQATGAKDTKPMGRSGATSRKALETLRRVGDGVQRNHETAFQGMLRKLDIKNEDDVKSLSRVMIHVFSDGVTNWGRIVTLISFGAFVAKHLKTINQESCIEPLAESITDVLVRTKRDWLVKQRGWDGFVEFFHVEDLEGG
Experiment: MCL-1/Bim Binding AlphaLISA Assay
Measurement context: 6xHis-Mcl-1 (171-327) and biotinylated Bim peptide (51-76)
// reported pIC50 for each item listed
Quick note: pIC50 means taking -log10 of the concentration in moles per liter.

compound=CC[C@H]1CN2C[C@@]3(CCCc4cc(Cl)ccc43)COc3ccc(cc32)C(=O)N=[S@](=O)(NC(=O)Cc2cnccn2)CCC/C=C/[C@H](OC)[C@@H]1C readout_name=pIC50 recorded_measurement=9.30

Item CCNC(=O)N[S@@]1(=O)=NC(=O)c2ccc3c(c2)N(C[C@@H]2CC[C@H]2[C@@H](OC)CCCCC1)C[C@@]1(CCCc2cc(Cl)ccc21)CO3 [Example 13] has what recorded pIC50? 8.74

I'd like to know its pIC50. The compound in question is CCC(=O)N[S@]1(=O)=NC(=O)c2ccc3c(c2)N(C[C@@H]2CC[C@H]2[C@@H](OC)/C=C/CCCC1)C[C@@]1(CCCc2cc(Cl)ccc21)CO3 8.40

Entry CCNC(=O)N[S@@]1(=O)=NC(=O)c2ccc3c(c2)N(C[C@@H]2CC[C@H]2[C@@H](OC)CCCCC1)C[C@@]1(CCCc2cc(Cl)ccc21)CO3 [Example 14] has what pIC50? 9.52

pIC50 for CO[C@H]1/C=C/CCCS(=O)(NC(=O)CCN(C)C)=NC(=O)c2ccc3c(c2)N(C[C@@H]2CC[C@H]21)C[C@@]1(CCCc2cc(Cl)ccc21)CO3 (some centres unmarked) ? 8.13

What does the data say about its pIC50? Entry: CCC(=O)N[S@]1(=O)=NC(=O)c2ccc3c(c2)N(C[C@@H]2CC[C@H]2[C@@H](O)/C=C/CCC1)C[C@@]1(CCCc2cc(Cl)ccc21)CO3 8.85

Endpoint output: pIC50 of CCC(=O)N[S@@]1(=O)=NC(=O)c2ccc3c(c2)N(C[C@@H]2CC[C@H]2[C@@H](O)/C=C/CCC1)C[C@@]1(CCCc2cc(Cl)ccc21)CO3 . Value? 9.40

Tell me the measured pIC50 of COc1nn(C)cc1C(=O)N[S@@]1(=O)=NC(=O)c2ccc3c(c2)N(C[C@@H]2CC[C@H]2[C@@H](O)/C=C/C[C@H](C)[C@H]1C)C[C@@]1(CCCc2cc(Cl)ccc21)CO3 , please. 10.42

Need pIC50 of CCC(=O)N[S@@]1(=O)=NC(=O)c2ccc3c(c2)N(C[C@@H]2CC[C@H]2[C@@H](OC)CCCCC1)C[C@@]1(CCCc2ccccc21)CO3 , thanks. 8.38

# pIC50 lookup, item CO[C@H]1/C=C/CCC[S@@](N)(=O)=NC(=O)c2ccc3c(c2)N(C[C@@H]2CC[C@H]21)C[C@@]1(CCCc2cc(Cl)ccc21)CO3 7.22

Record request: pIC50 value, item CO[C@H]1/C=C/CCCS(=O)(NC(=O)CCc2ccnn2C)=NC(=O)c2ccc3c(c2)N(C[C@@H]2CC[C@H]21)C[C@@]1(CCCc2cc(Cl)ccc21)CO3 (single isomer, unassigned) 8.43
